Tested on: Escherichia coli TOP10;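 also: peptides expressed intracellularly from a pBAD plasmid library in pooled LB shake-flask culture, induced with 0.3% L-arabinose, DNA abundance read by NGS, three biological replicates, DESeq2 with apeglm shrinkage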
method: shrunken log2 fold change of peptide-encoding DNA abundance (4.5 h post-induction vs induction); higher = less antimicrobial activity (less host growth inhibition)
reportedConditions: time post-induction: 4.5 h; library: site-saturation at positions 5, 18, 19, 20
Classification by shrunken log2 fold change follows these ranges: 1: < -0.08; 2: ≥ -0.08 and < 0.1; 3: ≥ 0.1

Q: Where would "RRIRMRPPRLPRPRPRPSGTPRP" land among the classes by reported shrunken log2 fold change?
Result: 3

Q: Form: Item = "RRIRNRPPRLPRPRPRPAWTPRP" ; Class = ?
Result: 3

Q: Field: class (shrunken log2 fold change) — entry: "RRIRHRPPRLPRPRPRPVDNPRP"
Result: 2

Q: Sort into band: "RRIRMRPPRLPRPRPRPKRIPRP"
Result: 3

Q: Assign a bin to "RRIRQRPPRLPRPRPRPETDPRP"
Result: 1

Q: Which category fits this record: "RRIRDRPPRLPRPRPRPERQPRP"
Result: 2

Q: Which category does the recorded shrunken log2 fold change put "RRIRCRPPRLPRPRPRPIVRPRP" in?
Result: 1

Q: In plain terms, what class is "RRIRERPPRLPRPRPRPLEPPRP" ?
Result: 2

Q: Place this sequence in its band: "RRIRLRPPRLPRPRPRPLFYPRP"
Result: 1

Q: # classify by shrunken log2 fold change band: "RRIRRRPPRLPRPRPRPEPEPRP"
Result: 3

Q: Using the reported shrunken log2 fold change, which band applies to "RRIRRRPPRLPRPRPRPVSWPRP" ?
Result: 3

Q: Each sequence maps to one class by shrunken log2 fold change. Which class for "RRIRWRPPRLPRPRPRPCPMPRP" ?
Result: 2

Q: Field: class (shrunken log2 fold change) — entry: "RRIRRRPPRLPRPRPRPLPLPRP"
Result: 2

Q: Please report the category associated with "RRIRCRPPRLPRPRPRPLTPPRP" , nothing else.
Result: 3

Q: Given "RRIRFRPPRLPRPRPRPAFSPRP" , name the class its shrunken log2 fold change places it in.
Result: 2

Q: Which band does "RRIRGRPPRLPRPRPRPWHEPRP" fall in?
Result: 1

Q: Category of "RRIRYRPPRLPRPRPRPYVAPRP" :
Result: 1

Q: Quick check: band for "RRIRPRPPRLPRPRPRPAPPPRP"
Result: 3

Q: Each sequence maps to one class by shrunken log2 fold change. Which class for "RRIRMRPPRLPRPRPRPILKPRP" ?
Result: 1

Q: Looking at "RRIRSRPPRLPRPRPRPSMWPRP" , which class would you pick?
Result: 3

Q: Consider "RRIRCRPPRLPRPRPRPAYSPRP" . To which shrunken log2 fold change class does it belong?
Result: 1

Q: Pick a category. Item: "RRIRYRPPRLPRPRPRPCGCPRP"
Result: 2

Q: Which shrunken log2 fold change band matches "RRIRTRPPRLPRPRPRPWCLPRP" ?
Result: 1

Q: Note: place this sequence into its band. Item: "RRIRFRPPRLPRPRPRPFPIPRP"
Result: 1

Q: Assign a bin to "RRIRKRPPRLPRPRPRPQAWPRP"
Result: 3

Q: Which class holds "RRIRTRPPRLPRPRPRPKMAPRP" ?
Result: 3

Q: Categorize the following entry: "RRIRVRPPRLPRPRPRPIQWPRP"
Result: 3

Q: Please indicate the class for "RRIRTRPPRLPRPRPRPKHTPRP" based on its shrunken log2 fold change.
Result: 2

Q: For "RRIRVRPPRLPRPRPRPALIPRP" , which shrunken log2 fold change bin applies?
Result: 3

Q: Which class holds "RRIRHRPPRLPRPRPRPPTTPRP" ?
Result: 1

Source: the supplement of paper PMC9112550
